The measured values listed here are drawn from PubChem BioAssay (NCI).

system: HOP-62 NSCLC; test: NCI tumour cell line growth inhibition, 48 h
Provide the reported TGI of each item.

Param readout= TGI; system= HOP-62 NSCLC; entry= O=C(N[C@@H](c1ccccc1)[C@@H](O)C(=O)OCc1ccc([N+](=O)[O-])cc1)c1ccccc1 ; returns value.
> 100 µM

For C/C(=N/NC(=S)Nc1ccc(Cl)cc1)c1cccc(/C(C)=N\NC(=S)Nc2ccc(Cl)cc2)n1 then?
45 µM

For COc1cc(O)c(C(=O)/C=C/c2ccc(O)cc2)cc1Oc1ccc(/C=C/C(=O)c2ccc(O)cc2O)cc1 then?
18.7 µM

For C#CC(C)(C)OC(=O)C(=[N+]=[N-])C(C)=O then?
> 10 µM

For O=C(/N=C/c1c(O)c2ccccc2oc1=O)Oc1ccccc1 then?
43.6 µM

For CC(C(=O)OCc1ccccc1)(c1ccco1)N1C(=O)OC(c2ccccc2)C1c1ccccc1 (configuration not stated) then?
> 100 µM

For COc1cc(N(CCC#N)CCC#N)ccc1/C(N=Nc1ccccc1C)=N\NC(=O)c1ccc(C)cc1 then?
> 100 µM

For O=C1c2ccccc2-c2c1c1ccccc1c(=O)n2CCCCl then?
6.57 µM

For COc1ccc(-c2coc3c4c(ccc3c2=O)OCO4)cc1OC then?
> 100 µM

For CNS(=O)(=O)NNS(=O)(=O)c1ccc(Br)cc1 then?
> 100 µM

For Cc1nn(C(=O)c2ccc(Cl)cc2)c2c1C(/C=C/c1ccccc1)SC(N)=N2 (configuration not stated) then?
> 10 µM

For CN(C)c1ccc(/C=N\NC(=O)Nc2cccc3ccccc23)cc1 then?
33.1 µM

For O=CN1CCN(CC(O)CN2CCCCC2)CC1 (configuration not stated) then?
> 100 µM

For CC(=O)O[C@H]1CC[C@@]2(C)C(=CC[C@@H]3[C@@H]2CC[C@]2(C)NC(=O)/C(=C\c4ccccc4)C[C@@H]32)C1 then?
30.1 µM

For N#CC(C(=O)C(=O)Nc1ccc(Cl)cc1)c1ccccc1 (configuration not stated) then?
> 100 µM

For O=C1NC(=O)/C(=C\c2ccccc2)C2=C1CCCC2 then?
25.8 µM

For O=C1/C(=C/c2cccc(Br)c2)Cc2ccccc21 then?
> 100 µM

For COc1cc2c3c(n(CCCOC(=O)C(F)(F)F)c(=O)c2cc1OC)-c1cc2c(cc1C3=O)OCO2 then?
< 0.0329 µM

For CCn1c(=O)c2c(=O)c3c4c(oc3oc2c2ccccc21)C(=O)c1ccccc1C4=O then?
> 100 µM

For Cc1ccc(-c2n[nH]c(=O)n2/N=C\c2ccc([N+](=O)[O-])cc2)cc1 then?
> 100 µM

For COc1c[c]([Hg][O]C(C)=O)c(OC)c(NC(=O)CC(C)=O)[c]1[Hg][O]C(C)=O then?
34.4 µM

For [N-]=[N+]=NC1C(O)C(CO)OC1n1ccc(=O)[nH]c1=O (configuration not stated) then?
> 875 µM

For S=c1[nH]c(=S)c2nnn(-c3ccccc3)c2[nH]1 then?
> 100 µM

For CC(C)C(=O)Nc1nc2c(ncn2C2OC(CO)C(O)C2O)c(=O)[nH]1 (configuration not stated) then?
> 100 µM

For COC1=CC2C(c3cc4ccccc4n3S(=O)(=O)c3ccccc3)CC1CN2C(=O)OCc1ccccc1 (configuration not stated) then?
> 100 µM

For Cc1nn(C(=O)Cc2ccccc2)c2c1C(c1ccc(Cl)cc1)SC(N)=N2 (configuration not stated) then?
> 100 µM

For Cc1cccc(C)c1NC(=O)C(=O)C(C(=O)c1ccccc1-c1ccccc1)C1OC(=O)c2ccccc21 (configuration not stated) then?
35.7 µM

For CCOC(=O)c1nc2ccc(C(F)(F)F)cc2[nH]c1=O then?
> 100 µM

For N#CC(OC1OC(COC2OC(CO)C(O)C(O)C2O)C(O)C(O)C1O)c1ccccc1 (configuration not stated) then?
> 225 µM

For O=C(CSC1CCc2ccccc21)N/N=C/c1ccccc1O (configuration not stated) then?
> 100 µM

For Nc1nc(Cl)c(N)c(NCC2(CO)CCCC2)n1 then?
> 100 µM

For COC(=O)[C@H](Cc1c[nH]c2ccccc12)NC(=O)c1ccc(CNC(=O)/C(C)=C/c2ccccc2)cc1 then?
> 100 µM

For CC1=C(C(=O)Nc2ccc(Cl)c(Cl)c2)C(c2cccc(Oc3ccccc3)c2)NC(=O)N1 (configuration not stated) then?
26.5 µM

For N#CC1=C(Nc2ccccc2)SC=C(c2ccccc2)NC1=NCc1ccccc1 then?
> 100 µM

For COc1cc2c(OC)cc1CSCc1sc(C)c(c1Br)CSC2 then?
> 100 µM

For CCOP(=O)(COCCn1ncc(=O)[nH]c1=O)OCC then?
> 100 µM

For CCC1CCc2c(c(=O)oc3c2cc(OC)c2cccc(OC)c23)C1 (configuration not stated) then?
> 100 µM

For CN1C(=O)CSC1=S then?
> 100 µM

For Cc1ccc(C)c(N=C2NC(=O)C(CC(=O)Nc3ccc(Cl)cc3Cl)S2)c1 (configuration not stated) then?
> 100 µM

For COCC1(CO)C(=O)C2CCN1CC2 (configuration not stated) then?
> 100 µM

For CCOC(=O)/C=C(/C)Sc1cc(O)c2ccccc2c1O then?
12.9 µM

For c1ccc([P+](CC[P+](c2ccccc2)(c2ccccc2)c2ccccc2)(c2ccccc2)c2ccccc2)cc1 then?
> 100 µM
